Overview of recorded melting point for various molecules

// below: answered molecules
# MOLECULE, melting point
records = [
    ("Nc1ccc(Nc2cccc3c2C(=O)c2ccccc2C3=O)cc1", "175 to 182 °C"),
    ("O=C1c2ccccc2C(=O)c2c1cccc2N1CCNCC1", "190 °C"),
    ("CN(CCO)c1cccc2c1C(=O)c1c(cccc1N(C)CCO)C2=O", "168 to 178 °C"),
]

Turning to the following molecule.
Ask | Given the entry O=C(O)C(F)(F)F.O=C1c2ccccc2C(=O)c2c1cccc2N1CCNCC1 [Example 4b] , report its measured melting point.
Reply | 170 °C

---

target: topo I (Homo sapiens); experiment: Inhibition of topoisomerase I mediated relaxation of pBR322 DNA; format: biochemical; details: at 25 μM
Sequence (P11387 whole entry): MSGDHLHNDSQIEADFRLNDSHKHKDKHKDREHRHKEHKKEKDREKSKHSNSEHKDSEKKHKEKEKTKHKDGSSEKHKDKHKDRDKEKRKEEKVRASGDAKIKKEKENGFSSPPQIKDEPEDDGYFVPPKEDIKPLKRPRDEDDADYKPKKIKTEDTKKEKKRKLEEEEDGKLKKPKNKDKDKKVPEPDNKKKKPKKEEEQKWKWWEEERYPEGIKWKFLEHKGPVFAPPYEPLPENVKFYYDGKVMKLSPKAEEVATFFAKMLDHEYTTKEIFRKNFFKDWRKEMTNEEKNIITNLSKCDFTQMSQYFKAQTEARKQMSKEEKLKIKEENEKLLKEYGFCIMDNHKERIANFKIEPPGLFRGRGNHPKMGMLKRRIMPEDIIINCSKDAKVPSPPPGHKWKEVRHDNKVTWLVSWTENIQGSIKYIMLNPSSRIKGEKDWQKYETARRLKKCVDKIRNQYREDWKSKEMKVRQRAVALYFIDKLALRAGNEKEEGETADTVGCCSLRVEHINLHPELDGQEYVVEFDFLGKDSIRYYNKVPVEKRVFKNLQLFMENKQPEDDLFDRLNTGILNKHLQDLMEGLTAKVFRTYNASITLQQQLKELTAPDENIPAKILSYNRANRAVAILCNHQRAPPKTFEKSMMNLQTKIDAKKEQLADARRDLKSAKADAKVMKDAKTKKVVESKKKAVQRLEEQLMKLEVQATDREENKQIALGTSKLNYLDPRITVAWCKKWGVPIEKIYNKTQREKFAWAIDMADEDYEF
REPORTED_METRIC: DNA-topoisomerase activity: inhibition of topo I relaxation

# SMILES_STRUCTURE, TGT, RESULT
measured = [
    ("CC(C)[C@H](N)C(=O)NCCCN1CCN(CCCNc2cccc3c2C(=O)c2ccccc2C3=O)CC1.O=C(O)C(F)(F)F", "topo I (Homo sapiens)", "PARTIAL inhibition"),
    ("N[C@@H](Cc1ccc(O)cc1)C(=O)NCCCN1CCN(CCCNc2cccc3c2C(=O)c2ccccc2C3=O)CC1.O=C(O)C(F)(F)F", "topo I (Homo sapiens)", "PARTIAL inhibition"),
    ("NCC(=O)NCCCN1CCN(CCCNc2cccc3c2C(=O)c2ccccc2C3=O)CC1.O=C(O)C(F)(F)F.O=C(O)C(F)(F)F.O=C(O)C(F)(F)F", "topo I (Homo sapiens)", "PARTIAL inhibition"),
]
